Values from ChEMBL document CHEMBL4373693

# test system: DNA topoisomerase 4 subunit A (Escherichia coli K-12)
# Sequence (P0AFI2 whole entry): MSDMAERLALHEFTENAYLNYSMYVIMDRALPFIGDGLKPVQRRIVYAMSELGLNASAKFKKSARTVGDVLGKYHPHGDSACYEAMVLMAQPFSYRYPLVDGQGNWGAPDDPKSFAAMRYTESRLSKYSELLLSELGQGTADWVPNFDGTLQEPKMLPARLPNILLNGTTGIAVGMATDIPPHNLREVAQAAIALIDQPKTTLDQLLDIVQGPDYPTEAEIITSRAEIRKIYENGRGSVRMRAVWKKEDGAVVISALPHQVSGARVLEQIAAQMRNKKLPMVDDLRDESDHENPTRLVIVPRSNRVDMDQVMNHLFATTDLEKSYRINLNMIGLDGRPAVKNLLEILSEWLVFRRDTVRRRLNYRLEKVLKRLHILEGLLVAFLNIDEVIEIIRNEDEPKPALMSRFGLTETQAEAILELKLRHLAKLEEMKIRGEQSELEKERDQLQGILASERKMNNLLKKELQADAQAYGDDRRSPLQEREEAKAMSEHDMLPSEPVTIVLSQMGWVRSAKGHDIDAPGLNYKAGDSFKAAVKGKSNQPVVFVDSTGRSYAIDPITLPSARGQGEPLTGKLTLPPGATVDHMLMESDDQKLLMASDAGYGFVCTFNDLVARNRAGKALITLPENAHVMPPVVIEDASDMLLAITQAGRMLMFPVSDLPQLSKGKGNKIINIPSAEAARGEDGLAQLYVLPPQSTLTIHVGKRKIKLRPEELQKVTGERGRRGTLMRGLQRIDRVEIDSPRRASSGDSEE
# assay details: Inhibition of Escherichia coli ATCC 25922 DNA topoisomerase 4 subunit ParC assessed as reduction in decatenation of kinetoplast DNA incubated for 30 mins by ethidium bromide staining based gel electrophoresis method
Class boundaries, taken from values of IC50, are as follows: low class: < 2 µM; middle class: ≥ 2 µM and < 8 µM; high class: ≥ 8 µM

> print(dat)
                           molecular.string  class.assignment
1  O=c1cc(NCCCN2CCN(c3nc(Cl)cc4ccccc34)CC2)c2ccccc2o1      middle class
2  O=c1cc(NC[C@@H](O)CN2CCN(c3nccc4ccc(F)cc34)CC2)c2ccccc2o1         low class
3  Cc1c(NCCCN2CCN(c3nccc4ccc(F)cc34)CC2)c2ccccc2oc1=O      middle class
4  O=c1cc(NCCCN2CCN(c3nccc4ccccc34)CC2)c2cc(F)ccc2o1         low class
5  O=C1CN(c2nccc3ccccc23)CCN1CCCNc1cc(=O)oc2ccccc12        high class
6  O=C(CCN1CCN(c2nccc3ccc(F)cc23)CC1)Nc1cc(=O)oc2ccccc12         low class
7  O=c1cc(N[C@H]2C[C@H](N3CCN(c4nccc5ccccc45)CC3)C2)c2ccccc2o1      middle class
8  O=c1cc(NCCCN2CCN(c3nccc4ncccc34)CC2)c2ccccc2o1        high class
9  O=c1cc(OCCCN2CCN(c3nccc4ccccc34)CC2)c2ccccc2o1        high class

====

# test system: DNA gyrase subunit A (Staphylococcus aureus, UniProt P20831)
# Sequence (P20831 whole entry): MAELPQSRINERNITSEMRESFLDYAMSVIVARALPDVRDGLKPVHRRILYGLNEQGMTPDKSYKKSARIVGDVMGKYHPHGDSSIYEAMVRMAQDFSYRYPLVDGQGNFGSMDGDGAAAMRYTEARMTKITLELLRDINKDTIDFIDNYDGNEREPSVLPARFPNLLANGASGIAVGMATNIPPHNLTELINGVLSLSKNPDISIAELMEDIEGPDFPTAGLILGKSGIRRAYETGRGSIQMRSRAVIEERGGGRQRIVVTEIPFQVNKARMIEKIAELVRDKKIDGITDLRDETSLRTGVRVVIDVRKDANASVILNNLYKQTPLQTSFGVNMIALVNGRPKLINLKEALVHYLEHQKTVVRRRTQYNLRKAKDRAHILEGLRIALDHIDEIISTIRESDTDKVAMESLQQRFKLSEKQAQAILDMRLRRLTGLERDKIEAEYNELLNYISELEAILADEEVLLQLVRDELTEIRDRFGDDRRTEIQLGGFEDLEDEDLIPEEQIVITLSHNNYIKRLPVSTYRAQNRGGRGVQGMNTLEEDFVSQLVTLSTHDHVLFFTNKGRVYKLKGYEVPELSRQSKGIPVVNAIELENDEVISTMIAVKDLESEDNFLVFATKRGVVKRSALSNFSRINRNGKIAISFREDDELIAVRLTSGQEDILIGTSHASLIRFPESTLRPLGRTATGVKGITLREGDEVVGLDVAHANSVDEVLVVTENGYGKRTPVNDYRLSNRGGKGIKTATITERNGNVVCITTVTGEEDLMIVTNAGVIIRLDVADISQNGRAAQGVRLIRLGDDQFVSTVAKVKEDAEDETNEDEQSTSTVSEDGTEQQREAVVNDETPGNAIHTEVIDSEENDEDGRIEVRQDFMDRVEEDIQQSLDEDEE
# assay details: Inhibition of Staphylococcus aureus ATCC 29213 DNA gyrase A assessed as reduction in enzyme-mediated supercoiling of relaxed pBR322 DNA by ethidium bromide staining based gel electrophoresis method
pIC50: −log10 of the molar value.
Response key: Fulfilled means pIC50 >= 5; Not fulfilled means pIC50 < 5.

> print(dat)
                                   molecule                               test.system  class.assignment
1  O=c1cc(NCCCN2CCN(c3nccc4ccc(F)cc34)CC2)c2ccccc2o1  DNA gyrase subunit A (Staphylococcus aureus, UniProt P20831)         Fulfilled
2  N#Cc1cc2ccccc2c(N2CCN(CCCNc3cc(=O)oc4ccccc34)CC2)n1  DNA gyrase subunit A (Staphylococcus aureus, UniProt P20831)         Fulfilled
3  O=c1cc(NCCCN2CCN(c3nccc4ccc(F)cc34)CC2)c2c(o1)CCNC2  DNA gyrase subunit A (Staphylococcus aureus, UniProt P20831)     Not fulfilled
4  Cc1cc2ccccc2c(N2CCN(CCCNc3cc(=O)oc4ccccc34)CC2)n1  DNA gyrase subunit A (Staphylococcus aureus, UniProt P20831)     Not fulfilled
5  O=C1CN(c2nccc3ccccc23)CCN1CCCNc1cc(=O)oc2ccccc12  DNA gyrase subunit A (Staphylococcus aureus, UniProt P20831)     Not fulfilled
6  O=c1cc(NCCCN2CCN(c3nccc4ncccc34)CC2)c2ccccc2o1  DNA gyrase subunit A (Staphylococcus aureus, UniProt P20831)     Not fulfilled
7  O=c1cc(N[C@H]2C[C@@H](N3CCN(c4nccc5ccccc45)CC3)C2)c2ccccc2o1  DNA gyrase subunit A (Staphylococcus aureus, UniProt P20831)         Fulfilled
8  O=c1cc(N[C@H]2C[C@H](N3CCN(c4nccc5ccccc45)CC3)C2)c2ccccc2o1  DNA gyrase subunit A (Staphylococcus aureus, UniProt P20831)         Fulfilled
9  O=c1nc(NCC(O)CN2CCN(c3nccc4ccc(F)cc34)CC2)c2cc(F)ccc2o1 (racemic)  DNA gyrase subunit A (Staphylococcus aureus, UniProt P20831)         Fulfilled

====

Measured inhibition at 5 min, 10 µM, listed per entry.
# test system: hERG (KCNH2) (Homo sapiens, UniProt Q12809)
# Sequence (Q12809 whole entry): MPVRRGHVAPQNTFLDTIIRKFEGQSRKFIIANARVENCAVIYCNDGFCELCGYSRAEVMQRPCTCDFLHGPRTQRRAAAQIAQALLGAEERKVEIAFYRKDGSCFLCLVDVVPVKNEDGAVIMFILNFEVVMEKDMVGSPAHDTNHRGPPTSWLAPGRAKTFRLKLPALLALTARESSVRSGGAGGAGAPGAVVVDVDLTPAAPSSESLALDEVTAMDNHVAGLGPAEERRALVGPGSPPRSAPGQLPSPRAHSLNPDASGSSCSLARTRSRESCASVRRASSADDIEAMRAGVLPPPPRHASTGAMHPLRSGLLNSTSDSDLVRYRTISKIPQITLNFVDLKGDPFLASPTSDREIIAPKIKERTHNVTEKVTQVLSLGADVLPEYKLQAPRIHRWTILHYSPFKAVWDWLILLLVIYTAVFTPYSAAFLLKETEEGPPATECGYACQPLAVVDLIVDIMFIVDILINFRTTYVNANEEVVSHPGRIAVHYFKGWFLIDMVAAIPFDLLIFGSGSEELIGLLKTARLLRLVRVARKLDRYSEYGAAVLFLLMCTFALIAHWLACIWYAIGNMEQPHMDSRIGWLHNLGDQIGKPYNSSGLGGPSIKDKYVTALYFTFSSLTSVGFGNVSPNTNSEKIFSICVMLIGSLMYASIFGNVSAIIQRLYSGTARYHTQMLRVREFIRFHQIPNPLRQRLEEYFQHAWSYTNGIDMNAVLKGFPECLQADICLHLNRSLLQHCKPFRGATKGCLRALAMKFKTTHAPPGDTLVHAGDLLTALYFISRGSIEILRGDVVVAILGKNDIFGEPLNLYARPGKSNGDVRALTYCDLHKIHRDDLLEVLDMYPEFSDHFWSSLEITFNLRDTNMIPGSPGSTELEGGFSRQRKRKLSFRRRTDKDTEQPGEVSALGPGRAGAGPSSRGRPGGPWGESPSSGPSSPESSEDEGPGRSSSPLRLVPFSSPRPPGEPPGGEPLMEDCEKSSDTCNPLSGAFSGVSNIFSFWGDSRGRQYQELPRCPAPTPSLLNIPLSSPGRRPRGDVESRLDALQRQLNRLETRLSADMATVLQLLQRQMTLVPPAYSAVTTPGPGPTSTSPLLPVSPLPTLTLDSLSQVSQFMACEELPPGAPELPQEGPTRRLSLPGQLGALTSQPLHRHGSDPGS
# assay details: Inhibition of human ERG expressed in CHO cells at 10 uM after 5 mins by automated whole-cell patch clamp relative to control
# Format: cell-based
# particulars: CHO cells that express human ERG
value kind: inhibition at 5 min, 10 µM (%)

> print(dat)
                                   compound  measured.number
1  O=c1nc(NCC(O)CN2CCN(c3nccc4ccc(F)cc34)CC2)c2cc(F)ccc2o1 (racemic)               67
2  O=c1nc(NCC(O)CN2CCN(c3nc(F)cc4ccc(F)cc34)CC2)c2cc(F)ccc2o1 (racemic)               24

====

# Test system: Enterococcus faecium
# assay details: Antibacterial activity against Enterococcus faecium APV 00626 after 16 to 24 hrs by broth microdilution method
# Format: functional
value kind: MIC (µg/mL)

molecule	test system	value kind	relation sign	measured number
O=c1nc(NCC(O)CN2CCN(c3nccc4ccc(F)cc34)CC2)c2cc(F)ccc2o1 (racemic)	Enterococcus faecium	MIC	=	16
O=c1nc(NCC(O)CN2CCN(c3nc(F)cc4ccc(F)cc34)CC2)c2cc(F)ccc2o1 (racemic)	Enterococcus faecium	MIC	=	32
O=C(O)c1cn(C2CC2)c2cc(N3CCNCC3)c(F)cc2c1=O [CIPROFLOXACIN]	Enterococcus faecium	MIC	=	16
CN[C@H](CC(C)C)C(=O)N[C@H]1C(=O)N[C@@H](CC(N)=O)C(=O)N[C@H]2C(=O)N[C@H]3C(=O)N[C@H](C(=O)N[C@H](C(=O)O)c4cc(O)cc(O)c4-c4cc3ccc4O)[C@H](O)c3ccc(c(Cl)c3)Oc3cc2cc(c3O[C@@H]2O[C@H](CO)[C@@H](O)[C@H](O)[C@H]2O[C@H]2C[C@](C)(N)[C@H](O)[C@H](C)O2)Oc2ccc(cc2Cl)[C@H]1O [VANCOMYCIN]	Enterococcus faecium	MIC	>	128

====

# System: Haemophilus influenzae
# assay details: Antibacterial activity against quinolone-sensitive Haemophilus influenzae H128 after 16 to 24 hrs by broth microdilution method
# Format: functional

molecule	relation sign	MIC / µg/mL
O=C(O)c1cn(C2CC2)c2cc(N3CCNCC3)c(F)cc2c1=O	=	0.008
O=c1nc(NCC(O)CN2CCN(c3nc(F)cc4ccc(F)cc34)CC2)c2cc(F)ccc2o1 (racemic)	=	0.06
COc1ccc2cc(F)nc(N3CCN(CC(O)CNc4cc(=O)oc5ccc(F)cc45)CC3)c2c1 (racemic)	=	0.5
CN[C@H](CC(C)C)C(=O)N[C@H]1C(=O)N[C@@H](CC(N)=O)C(=O)N[C@H]2C(=O)N[C@H]3C(=O)N[C@H](C(=O)N[C@H](C(=O)O)c4cc(O)cc(O)c4-c4cc3ccc4O)[C@H](O)c3ccc(c(Cl)c3)Oc3cc2cc(c3O[C@@H]2O[C@H](CO)[C@@H](O)[C@H](O)[C@H]2O[C@H]2C[C@](C)(N)[C@H](O)[C@H](C)O2)Oc2ccc(cc2Cl)[C@H]1O	>	8
O=c1nc(NCC(O)CN2CCN(c3nccc4ccc(F)cc34)CC2)c2cc(F)ccc2o1 (racemic)	=	0.12

====

# test system: DNA gyrase (Staphylococcus aureus, UniProt P0A0K8+P20831)
# Sequence (P0A0K8 whole entry, one chain of several): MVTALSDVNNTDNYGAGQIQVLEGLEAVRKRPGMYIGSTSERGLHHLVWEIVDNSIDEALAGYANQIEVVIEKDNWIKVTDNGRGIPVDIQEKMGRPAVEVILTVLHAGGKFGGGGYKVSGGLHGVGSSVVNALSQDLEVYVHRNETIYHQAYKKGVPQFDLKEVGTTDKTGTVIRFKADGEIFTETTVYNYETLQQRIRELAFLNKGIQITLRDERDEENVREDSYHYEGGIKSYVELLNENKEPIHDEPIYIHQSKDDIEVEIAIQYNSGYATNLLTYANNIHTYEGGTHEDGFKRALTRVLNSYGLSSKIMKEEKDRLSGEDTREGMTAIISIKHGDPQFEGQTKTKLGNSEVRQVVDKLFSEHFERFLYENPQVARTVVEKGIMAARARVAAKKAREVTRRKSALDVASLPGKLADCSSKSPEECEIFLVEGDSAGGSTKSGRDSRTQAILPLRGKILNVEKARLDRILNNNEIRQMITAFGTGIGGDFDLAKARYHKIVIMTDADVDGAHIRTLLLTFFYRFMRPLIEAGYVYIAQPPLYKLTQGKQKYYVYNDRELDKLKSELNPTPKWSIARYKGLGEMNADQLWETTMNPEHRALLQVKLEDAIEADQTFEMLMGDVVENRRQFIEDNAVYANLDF
# assay details: Inhibition of Staphylococcus aureus DNA gyrase
pIC50: −log10 of the molar value.
Measured pIC50, listed per entry.
value kind: pIC50

> print(dat)
                           molecular.string  measured.number
1  O=C1COc2ccc(N3C[C@H](CCCN[C@@H]4Cn5c(=O)ccc6ccc(F)c4c65)OC3=O)nc2N1             8.10
2  COc1ccc2ncc(C#N)c(CCN3CCC(NCc4cc5c(cn4)OCS5)CC3)c2c1             7.85
